meta.source: PubChem BioAssay (NCI)

test: NCI Yeast Anticancer Drug Screen. Data for the cln2 rad14 strain (AID 165);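 also: 0% = growth equal to vehicle treated cultures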; conditions: S. cerevisiae cln2 rad14 strain, at 50.0 µM (retest, dose inferred, filed as 5.0), active compounds read high
This is part of a sample that, as a whole, favours compounds with a hit. Of some 79,000 tested, about 15% had one in any assay.
Measured growth inhibition of individual entries
Parameter: growth inhibition (%)

{"Compound": "OC1(C2C=CC=C2)c2ccccc2C=Cc2ccccc21", "Unit abbrev": "%", "Measured result": 70}
{"Compound": "COC(=O)CSC(=S)N1CCOCC1", "Unit abbrev": "%", "Measured result": -4}
{"Compound": "CNC(=O)OCCN1c2ccccc2Sc2ccccc21", "Unit abbrev": "%", "Measured result": 82}
{"Compound": "O=C(/C=C/c1ccc(Cl)cc1)NC1C=Nc2ccc([N+](=O)[O-])cc2NC1=O (stereo not given)", "Unit abbrev": "%", "Measured result": 93}
{"Compound": "Cc1cc2c(C(C)C)c(O)c(O)c(C=Nc3ccccc3S)c2c(O)c1-c1c(C)cc2c(C(C)C)c(O)c(O)c(C=Nc3ccccc3S)c2c1O", "Unit abbrev": "%", "Measured result": 16}
{"Compound": "COc1cc(OC)c(OC)cc1/C=C\\c1ccnc2ccccc12", "Unit abbrev": "%", "Measured result": 57}
{"Compound": "CC(C)(C)OC(=O)NCCc1cccc2c1oc1c(CCC(=O)O)cccc12", "Unit abbrev": "%", "Measured result": 99}
{"Compound": "O=C(NCCCCCCNC(=O)n1cc(F)c(=O)[nH]c1=O)NCCCOCCOCCOCCOCCOCCOCCOCCOCCOCCOCCOCCOCCOCCOCCOCCOCCOCCOCCOCCOCCOCCCNC(=O)C(O)C(O)C(OC1OC(CO)C(O)C(O)C1O)C(O)CO (stereo not given)", "Unit abbrev": "%", "Measured result": -5}
{"Compound": "COc1cc(/C=C/C(=O)NCCCCN=[N+]=[N-])ccc1OCc1ccccc1", "Unit abbrev": "%", "Measured result": -13}
{"Compound": "OC(C/C=C/c1ccccc1)(c1ccccc1)c1ccccc1", "Unit abbrev": "%", "Measured result": 55}
{"Compound": "CCCCC(O)CC (stereo not given)", "Unit abbrev": "%", "Measured result": -1}
{"Compound": "Cc1nc(N=C(N)N)nc2ccc3ccccc3c12", "Unit abbrev": "%", "Measured result": 99}
{"Compound": "CC1=CC(C)(C)Nc2ccc(CSc3ccccc3)cc21", "Unit abbrev": "%", "Measured result": 6}
{"Compound": "CC(C)c1ccc(C=Nc2ccc(SSc3ccc(N=Cc4ccc(C(C)C)cc4)cc3)cc2)cc1", "Unit abbrev": "%", "Measured result": -13}
{"Compound": "CN(C)CCNc1ccc(CO)c2oc3ccc(O)cc3c(=O)c12", "Unit abbrev": "%", "Measured result": 28}
{"Compound": "Cc1ccc(CC(=O)c2c(C)[nH]c3ccccc23)cc1C", "Unit abbrev": "%", "Measured result": 44}
{"Compound": "CCN(CC)CCOc1ccc2c(C)c(-c3ccccc3)c(=O)oc2c1", "Unit abbrev": "%", "Measured result": 18}
{"Compound": "COc1cccc2c1C(=O)c1c(O)c3c(c(O)c1C2=O)C[C@@](O)(C(C)=O)C[C@@H]3OC1CC(N(C)C)C(O)C(C)O1 (stereo not given in full)", "Unit abbrev": "%", "Measured result": 97}
{"Compound": "Cc1ccc(S(=O)(=O)Nc2cc(S(=O)(=O)O)c(N)c3c2C(=O)c2ccccc2C3=O)cc1", "Unit abbrev": "%", "Measured result": 89}
{"Compound": "O=C(/C(=C\\c1ccc(Cl)c(Cl)c1)c1ccccc1)c1ccc(O)cc1", "Unit abbrev": "%", "Measured result": 93}
{"Compound": "CCOC(=O)C(Cc1c[nH]c2cc([N+](=O)[O-])ccc12)NS(=O)(=O)c1ccc2ccccc2c1 (stereo not given)", "Unit abbrev": "%", "Measured result": 94}
{"Compound": "CNC(=O)N(C)CN(C)C(=O)NC", "Unit abbrev": "%", "Measured result": -9}
{"Compound": "CCC1CCCC(=O)C1 (stereo not given)", "Unit abbrev": "%", "Measured result": 1}
{"Compound": "CCCN(CCC)C(=S)N/N=C/c1ccccn1", "Unit abbrev": "%", "Measured result": 100}
{"Compound": "CCCCCCCCCCCCN", "Unit abbrev": "%", "Measured result": 100}
{"Compound": "CCOC(=O)C1=C(C(=O)c2ccc(OC)cc2)C(c2c(Cl)cccc2Cl)C(C(=O)c2ccc(OC)cc2)=C(C(=O)OCC)N1", "Unit abbrev": "%", "Measured result": 18}
{"Compound": "COc1cc(O)c2c(c1)C(=O)c1cc3c(c(O)c1C2=O)C(OC1OC(C)C(OC)C(O)C1OC)C(OC)C(C)(O)C3=O (stereo not given)", "Unit abbrev": "%", "Measured result": 98}
{"Compound": "Cc1ccc(OC(=O)c2ccc(N)cc2O)cc1", "Unit abbrev": "%", "Measured result": 97}
{"Compound": "O=C1OC2=C(c3ccccc3)CCCC2C1=O (stereo not given)", "Unit abbrev": "%", "Measured result": 94}
{"Compound": "Nc1cc2ccc(O)cc2c2ccccc12", "Unit abbrev": "%", "Measured result": 34}
{"Compound": "CC(=O)Nc1nc(N)c2ncn(C3OC(C(O)CO)C(O)C3O)c2n1 (stereo not given)", "Unit abbrev": "%", "Measured result": 0}
{"Compound": "CC(=O)Nc1ccc(S(=O)(=O)N/N=C/c2ccc(C)cc2)cc1", "Unit abbrev": "%", "Measured result": 1}
{"Compound": "CCCCN(C(=O)CCl)c1ccccc1", "Unit abbrev": "%", "Measured result": 5}
{"Compound": "O=C1c2cccc(O)c2C(=O)c2c(O)cccc21", "Unit abbrev": "%", "Measured result": 25}
{"Compound": "C1=C(c2ccccc2)N(CCc2ccccc2)C(c2ccccc2)=CN1Cc1ccccc1", "Unit abbrev": "%", "Measured result": 96}
{"Compound": "N#CNC1=NCOCN1", "Unit abbrev": "%", "Measured result": 11}
{"Compound": "c1ccc(CSC(SCc2ccccc2)(c2ccccc2)c2ccccc2)cc1", "Unit abbrev": "%", "Measured result": 87}
{"Compound": "Cc1n(-c2ccccc2)c2c([n+]1Cc1ccc([N+](=O)[O-])cc1)C(=O)c1ccccc1C2=O", "Unit abbrev": "%", "Measured result": 92}
{"Compound": "CCCCCCCCCCCCOS(=O)(=O)O", "Unit abbrev": "%", "Measured result": 36}
{"Compound": "CCN1/C(=C/C=C/C=C/c2sc3ccccc3[n+]2CC)Sc2ccccc21", "Unit abbrev": "%", "Measured result": 28}
{"Compound": "O=P(C(=S)NC1CC2C=CC1C2)(c1ccccc1)c1ccccc1 (stereo not given)", "Unit abbrev": "%", "Measured result": 85}
{"Compound": "CC1(c2ccccc2)c2ccccc2N(c2ccccc2)C(=O)C1O (stereo not given)", "Unit abbrev": "%", "Measured result": 99}
{"Compound": "CCOC(=O)c1ccc(NCc2ccc3ccccc3n2)cc1", "Unit abbrev": "%", "Measured result": 4}
{"Compound": "CN(C)c1ccc(/C=C/c2ccc3ccccc3[n+]2C)cc1", "Unit abbrev": "%", "Measured result": 98}
{"Compound": "Cc1cc2c(c(Br)c1O)Oc1c(cc(C)c(O)c1Br)C21OC(=O)c2ccccc21", "Unit abbrev": "%", "Measured result": 98}
